- target of assay: EGFR L858R/C797S (Homo sapiens, UniProt P00533, C797S/L858R)
- Sequence (P00533 25-1210 C797S/L858R): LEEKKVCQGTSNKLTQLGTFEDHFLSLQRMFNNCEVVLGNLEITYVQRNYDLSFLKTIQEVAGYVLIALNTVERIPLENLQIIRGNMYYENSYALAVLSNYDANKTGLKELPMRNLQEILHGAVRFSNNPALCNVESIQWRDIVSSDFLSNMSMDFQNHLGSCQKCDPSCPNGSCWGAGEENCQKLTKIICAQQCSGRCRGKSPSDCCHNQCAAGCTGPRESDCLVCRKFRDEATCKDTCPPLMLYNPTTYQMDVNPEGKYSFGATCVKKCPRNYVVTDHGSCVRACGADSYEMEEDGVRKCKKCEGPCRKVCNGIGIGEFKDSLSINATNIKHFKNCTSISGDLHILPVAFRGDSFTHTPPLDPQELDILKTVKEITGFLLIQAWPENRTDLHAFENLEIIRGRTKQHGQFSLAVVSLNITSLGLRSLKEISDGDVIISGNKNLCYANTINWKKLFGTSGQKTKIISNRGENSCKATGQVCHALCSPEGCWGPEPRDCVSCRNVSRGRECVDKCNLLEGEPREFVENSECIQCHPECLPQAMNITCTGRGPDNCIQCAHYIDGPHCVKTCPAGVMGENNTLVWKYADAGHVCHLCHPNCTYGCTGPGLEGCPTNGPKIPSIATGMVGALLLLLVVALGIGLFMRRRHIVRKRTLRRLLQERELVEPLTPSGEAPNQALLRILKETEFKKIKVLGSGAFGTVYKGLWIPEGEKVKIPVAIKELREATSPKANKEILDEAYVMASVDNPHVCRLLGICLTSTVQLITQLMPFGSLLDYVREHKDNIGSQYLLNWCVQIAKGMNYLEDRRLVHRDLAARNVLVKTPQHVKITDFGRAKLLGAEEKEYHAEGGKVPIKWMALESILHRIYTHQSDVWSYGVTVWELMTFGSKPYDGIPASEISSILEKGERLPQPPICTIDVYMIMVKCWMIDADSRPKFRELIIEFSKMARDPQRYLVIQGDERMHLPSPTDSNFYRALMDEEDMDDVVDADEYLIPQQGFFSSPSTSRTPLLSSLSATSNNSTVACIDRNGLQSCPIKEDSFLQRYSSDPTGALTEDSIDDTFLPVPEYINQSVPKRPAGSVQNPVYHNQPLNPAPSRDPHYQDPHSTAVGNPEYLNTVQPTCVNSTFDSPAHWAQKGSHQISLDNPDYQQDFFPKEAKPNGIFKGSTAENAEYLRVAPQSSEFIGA
- assay procedure: Biochemical EGFR kinase inhibition assay (Lance Ultra TR-FRET), double mutant L858R/C797S
- study conditions: ATP at Km; read-out: IC50 L858R/C797S (nM), Km ATP
assay readout: IC50 (nM)

CC(C)Nc1cc(Nc2ccnc(-c3cnn(S(=O)(=O)C4CC4)c3)n2)ncc1C#CCN1CCOCC1 [Example 202] : 92.7

[I] O=S(=O)(C1CC1)n1cc(-c2nccc(Nc3cc(N[C@H]4CCC[C@@H](O)C4)c(C#Cc4ccc(CN5CCOCC5)cc4)cn3)n2)cn1 [Example 159]
[II] CC1(CO)CCN(c2cc(Nc3ccnc(-c4cnn(S(=O)(=O)C5CC5)c4)n3)ncc2C#Cc2cccnc2)CC1 [Example 260]
[III] CN1CCC(C#Cc2cnc(Nc3ccnc(-c4cnn(S(=O)(=O)C5CC5)c4)n3)cc2N2CCC(C)(CO)CC2)CC1 [Example 182]
Order these by IC50, descending, and give the full ranking. Put the labels in the requested order and list them out.
I, II, III
(I: 7.4 nM, II: 1 nM, III: 0.4 nM)

[1] O=S(=O)(C1CC1)n1cc(-c2nccc(Nc3cc(N4CCC5(CCO5)CC4)c(C#Cc4cccnc4)cn3)n2)cn1 [Example 283]
[2] COC1(C)CCN(c2cc(Nc3ccnc(-c4cnn(S(=O)(=O)C5CC5)c4)n3)ncc2C#Cc2cccnc2)CC1 [Example 281]
Given 1 and 2 , report the one with the higher recorded IC50. Returns: label corresponding to the selected item.
2
(2: 6.3 nM, 1: 1.9 nM)

----------
- target of assay: EGFR L858R/C797S (Homo sapiens, UniProt P00533, C797S/L858R)
- assay procedure: Biochemical EGFR kinase inhibition assay (Lance Ultra TR-FRET), double mutant L858R/C797S
- study conditions: Km ATP; read-out: IC50 L858R/C797S (nM), Km ATP
assay readout: IC50 (nM)

[P] C[C@]1(O)CCCN(c2cc(Nc3ccnc(-c4cnn(S(=O)(=O)C5CC5)c4)n3)ncc2C#Cc2cnn(C(F)(F)F)c2)C1 [Example 448]
[Q] CS(=O)(=O)N1CCC(C#Cc2cnc(Nc3ccnc(-c4cnn(S(=O)(=O)C5CC5)c4)n3)cc2NCC2CCC(O)CC2)C1 (stereo not drawn) [Example 398]
[R] O=S(=O)(C1CC1)n1cc(-c2nccc(Nc3cc(N4CCC5(CCCO5)CC4)c(C#Cc4ncc(CN5CCOCC5)cn4)cn3)n2)cn1 [Example 366]
Using measured IC50, arrange the molecules from above in descending sequence. Put the labels in the requested order and list them out.
Q, P, R

----------
- target of assay: EGFR wildtype (WT) (Homo sapiens)
- assay procedure: Biochemical EGFR kinase inhibition assay (Lance Ultra TR-FRET), wildtype
- study conditions: Km ATP; read-out: IC50 WT (nM), Km ATP
assay readout: IC50 (nM)

CN1CCN(Cc2ccc(C#Cc3cnc(Nc4ccnc(-c5cnn(S(=O)(=O)C6CC6)c5)n4)cc3N[C@H]3CC[C@]4(CCC(=O)N4)CC3)cc2)CC1 [Example 362] : 10.7
O=S(=O)(C1CC1)n1cc(-c2nccc(Nc3cc(NC4CCC(CO)CC4)c(C#CC4CCCO4)cn3)n2)cn1 (stereo not drawn) [Example 374] : 10.4
O=S(=O)(C1CC1)n1cc(-c2nccc(Nc3cc(NC4CCC(O)CC4)c(C#CC4CCOC4C(F)(F)F)cn3)n2)cn1 (stereo not drawn) [Example 420] : 52.7
O=S(=O)(C1CC1)n1cc(-c2nccc(Nc3cc(NC4CCC(O)CC4)c(C#CC4CCCO4)cn3)n2)cn1 (stereo not drawn) [Example 376] : 15.1
CC1(O)CCN(c2cc(Nc3ccnc(-c4cnn(S(=O)(=O)C5CC5)c4)n3)ncc2C#CC2CC3CCC2O3)CC1 (stereo not drawn) [Example 424] : 8.8
CN(C)CC1(C)CCN(c2cc(Nc3ccnc(-c4cnn(S(=O)(=O)C5CC5)c4)n3)ncc2C#CC2(C)CC2)CC1 [Example 406] : 35.2
C[C@]1(O)CC[C@H](CNc2cc(Nc3ccnc(-c4cnn(S(=O)(=O)C5CC5)c4)n3)ncc2C#Cc2cnn(CCF)c2)CC1 [Example 380] : 114
CN1CCC(C#Cc2cnc(Nc3ccnc(-c4cnn(S(=O)(=O)C5CC5)c4)n3)cc2N2CCC3(CCO3)CC2)C1 (stereo not drawn) [Example 373] : 10.8

[P] CN(C)CCC1CCN(c2cc(Nc3ccnc(-c4cnn(S(=O)(=O)C5CC5)c4)n3)ncc2C#CC2CCO[C@H]2C(F)(F)F)CC1 (stereo partly drawn) [Example 419]
[Q] CC1(O)CCN(c2cc(Nc3ccnc(-c4cnn(S(=O)(=O)C5CC5)c4)n3)ncc2C#CC2(F)CCOC2)CC1 (stereo not drawn) [Example 435]
[R] CN1CCC(C#Cc2cnc(Nc3ccnc(-c4cnn(S(=O)(=O)C5CC5)c4)n3)cc2N2CCC3(CCCO3)CC2)C1 (stereo not drawn) [Example 372]
Give the ascending ranking of the items by reported IC50. Return the labels ranked in the requested order, please.
R, Q, P

----------
- target of assay: EGFR wildtype (WT) (Homo sapiens, UniProt P00533)
- Sequence (P00533 25-1210): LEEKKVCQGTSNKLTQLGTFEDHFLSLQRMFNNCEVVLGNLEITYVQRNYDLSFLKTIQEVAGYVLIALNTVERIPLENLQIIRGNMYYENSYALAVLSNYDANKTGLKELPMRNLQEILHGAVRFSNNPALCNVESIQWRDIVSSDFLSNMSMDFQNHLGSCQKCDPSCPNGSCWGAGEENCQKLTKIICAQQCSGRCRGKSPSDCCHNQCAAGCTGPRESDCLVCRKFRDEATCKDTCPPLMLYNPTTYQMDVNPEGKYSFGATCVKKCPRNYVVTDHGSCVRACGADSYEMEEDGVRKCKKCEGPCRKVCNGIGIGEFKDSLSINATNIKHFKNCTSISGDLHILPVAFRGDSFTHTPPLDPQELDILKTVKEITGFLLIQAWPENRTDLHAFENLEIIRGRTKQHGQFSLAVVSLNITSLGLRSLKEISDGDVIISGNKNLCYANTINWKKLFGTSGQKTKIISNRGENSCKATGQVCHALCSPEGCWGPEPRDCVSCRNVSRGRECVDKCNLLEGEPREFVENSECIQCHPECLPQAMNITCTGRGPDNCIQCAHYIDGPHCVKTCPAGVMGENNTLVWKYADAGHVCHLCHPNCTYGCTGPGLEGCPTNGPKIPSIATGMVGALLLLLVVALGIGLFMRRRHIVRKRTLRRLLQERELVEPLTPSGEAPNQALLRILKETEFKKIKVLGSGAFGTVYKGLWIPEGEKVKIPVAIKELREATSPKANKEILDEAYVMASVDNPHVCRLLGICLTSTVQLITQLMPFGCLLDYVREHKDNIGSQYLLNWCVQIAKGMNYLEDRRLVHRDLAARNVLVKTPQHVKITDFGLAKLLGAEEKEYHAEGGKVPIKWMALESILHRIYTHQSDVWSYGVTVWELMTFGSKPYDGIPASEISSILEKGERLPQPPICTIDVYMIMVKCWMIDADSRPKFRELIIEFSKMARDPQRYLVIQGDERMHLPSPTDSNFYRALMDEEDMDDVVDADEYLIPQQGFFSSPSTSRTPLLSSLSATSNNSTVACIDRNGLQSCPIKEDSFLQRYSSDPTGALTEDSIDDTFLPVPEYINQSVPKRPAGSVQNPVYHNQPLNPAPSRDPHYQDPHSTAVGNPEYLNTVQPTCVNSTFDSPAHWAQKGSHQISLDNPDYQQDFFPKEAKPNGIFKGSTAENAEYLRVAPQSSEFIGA
- assay procedure: Biochemical EGFR kinase inhibition assay (Lance Ultra TR-FRET), wildtype
- study conditions: ATP at Km; read-out: IC50 WT (nM), Km ATP
assay readout: IC50 (nM)

[A] O=S(=O)(C1CC1)n1cc(-c2nccc(Nc3cc(N[C@H]4CC[C@@H](O)CC4)c(C#Cc4ccc(CN5CCOCC5)cn4)cn3)n2)cn1
[B] CC1(CO)CCN(c2cc(Nc3ccnc(-c4cnn(S(=O)(=O)C5CC5)c4)n3)ncc2C#Cc2cccnc2)CC1
[C] O=S(=O)(C1CC1)n1cc(-c2nccc(Nc3cc(N4CCC5(CCCO5)CC4)c(C#Cc4cccnc4)cn3)n2)cn1
[D] CCc1cnc(C#Cc2cnc(Nc3ccnc(-c4cnn(S(=O)(=O)C5CC5)c4)n3)cc2N[C@@H]2CCC[C@H](O)C2)s1
Order these molecules (above) by their IC50, from the smallest value upward. Field: ranking. Enter the labels in the order requested.
B, A, C, D

----------
- target of assay: EGFR Del19/C797S (Homo sapiens, UniProt P00533, C797S/DEL746-750)
- Sequence (P00533 with tags, fused parts or gaps DEL746-750/C797S): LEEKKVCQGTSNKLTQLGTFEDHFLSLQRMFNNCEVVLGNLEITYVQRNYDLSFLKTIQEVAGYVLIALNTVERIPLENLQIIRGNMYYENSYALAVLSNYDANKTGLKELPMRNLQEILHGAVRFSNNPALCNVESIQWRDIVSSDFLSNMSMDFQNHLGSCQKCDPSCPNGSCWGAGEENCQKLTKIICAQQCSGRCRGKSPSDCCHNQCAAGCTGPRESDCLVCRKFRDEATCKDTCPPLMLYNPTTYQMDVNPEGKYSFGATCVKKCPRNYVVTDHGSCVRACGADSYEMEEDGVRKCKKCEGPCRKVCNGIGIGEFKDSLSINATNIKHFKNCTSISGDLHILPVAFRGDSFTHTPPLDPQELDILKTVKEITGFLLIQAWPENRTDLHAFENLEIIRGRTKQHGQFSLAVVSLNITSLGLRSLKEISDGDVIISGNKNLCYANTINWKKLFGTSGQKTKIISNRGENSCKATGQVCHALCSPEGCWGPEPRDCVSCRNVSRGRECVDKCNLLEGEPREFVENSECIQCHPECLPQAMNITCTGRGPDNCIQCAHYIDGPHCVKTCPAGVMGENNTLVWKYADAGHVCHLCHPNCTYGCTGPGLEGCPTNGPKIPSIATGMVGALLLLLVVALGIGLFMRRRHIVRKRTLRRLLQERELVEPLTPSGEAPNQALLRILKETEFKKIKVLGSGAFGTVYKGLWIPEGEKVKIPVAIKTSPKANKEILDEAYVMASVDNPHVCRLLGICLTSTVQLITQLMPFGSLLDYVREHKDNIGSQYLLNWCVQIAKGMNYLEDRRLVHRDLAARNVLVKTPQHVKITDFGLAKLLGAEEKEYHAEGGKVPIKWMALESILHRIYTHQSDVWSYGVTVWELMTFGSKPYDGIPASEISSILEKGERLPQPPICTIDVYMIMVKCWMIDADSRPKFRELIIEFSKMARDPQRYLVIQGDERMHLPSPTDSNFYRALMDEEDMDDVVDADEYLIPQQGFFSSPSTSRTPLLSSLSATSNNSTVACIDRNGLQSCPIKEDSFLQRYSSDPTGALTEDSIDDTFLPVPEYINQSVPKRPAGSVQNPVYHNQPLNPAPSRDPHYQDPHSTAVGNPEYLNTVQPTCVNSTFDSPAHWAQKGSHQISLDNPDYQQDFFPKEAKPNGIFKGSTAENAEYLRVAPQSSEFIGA
- assay procedure: Biochemical EGFR kinase inhibition assay (Lance Ultra TR-FRET), double mutant del19/C797S
- study conditions: IC50 Del19/C797S (nM), 100 μM ATP
assay readout: IC50 (nM)

[a] O=S(=O)(C1CC1)n1cc(-c2nccc(Nc3cc(N4CCCC(CO)C4)c(C#Cc4cnn(C5CCOCC5)c4)cn3)n2)cn1 (stereo not drawn)
[b] O=S1(=O)CCC(C#Cc2cnc(Nc3ccnc(-c4cnn(S(=O)(=O)C5CC5)c4)n3)cc2NC2CCC(CO)CC2)C1 (stereo not drawn)
Which of the two items, a and b , has the greater recorded IC50? # reply format: chosen label
a
(a: 12.9 nM, b: 1.9 nM)

----------
- target of assay: EGFR L858R/T790M/C797S (Homo sapiens, UniProt P00533, C797S/L858R/T790M)
- Sequence (P00533 25-1210 T790M/C797S/L858R): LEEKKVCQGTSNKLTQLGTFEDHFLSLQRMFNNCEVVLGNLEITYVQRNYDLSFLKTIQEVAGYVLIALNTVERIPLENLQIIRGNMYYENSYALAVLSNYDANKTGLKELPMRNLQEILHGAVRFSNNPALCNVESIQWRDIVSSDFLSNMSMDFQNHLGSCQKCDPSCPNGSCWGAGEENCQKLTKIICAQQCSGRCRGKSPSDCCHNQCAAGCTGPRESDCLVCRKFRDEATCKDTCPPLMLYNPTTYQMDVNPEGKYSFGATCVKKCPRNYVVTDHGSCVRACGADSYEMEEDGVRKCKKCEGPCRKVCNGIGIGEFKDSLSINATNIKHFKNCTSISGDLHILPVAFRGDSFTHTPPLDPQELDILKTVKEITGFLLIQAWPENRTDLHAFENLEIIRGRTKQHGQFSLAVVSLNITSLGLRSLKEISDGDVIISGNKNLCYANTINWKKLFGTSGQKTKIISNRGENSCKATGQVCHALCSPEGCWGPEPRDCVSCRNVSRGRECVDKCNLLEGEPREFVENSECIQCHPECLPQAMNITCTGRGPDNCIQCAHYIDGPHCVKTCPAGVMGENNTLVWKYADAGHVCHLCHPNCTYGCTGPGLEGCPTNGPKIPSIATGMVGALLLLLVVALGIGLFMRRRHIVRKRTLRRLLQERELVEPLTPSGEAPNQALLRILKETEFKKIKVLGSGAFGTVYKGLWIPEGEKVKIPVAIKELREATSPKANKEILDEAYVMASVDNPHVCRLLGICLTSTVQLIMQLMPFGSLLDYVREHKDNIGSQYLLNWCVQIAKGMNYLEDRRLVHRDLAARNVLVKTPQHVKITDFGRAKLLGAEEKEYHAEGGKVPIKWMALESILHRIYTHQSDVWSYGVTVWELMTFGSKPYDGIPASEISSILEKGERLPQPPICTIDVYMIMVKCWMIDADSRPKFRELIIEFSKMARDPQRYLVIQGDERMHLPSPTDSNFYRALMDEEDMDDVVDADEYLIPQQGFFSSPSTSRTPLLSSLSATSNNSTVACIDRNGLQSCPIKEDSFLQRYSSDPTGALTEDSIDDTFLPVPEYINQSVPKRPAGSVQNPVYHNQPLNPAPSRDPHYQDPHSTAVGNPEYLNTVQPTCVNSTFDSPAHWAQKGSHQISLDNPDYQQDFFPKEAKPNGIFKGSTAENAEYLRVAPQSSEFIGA
- assay procedure: Biochemical EGFR kinase inhibition assay (Lance Ultra TR-FRET), triple mutant L858R/T790M/C797S
- study conditions: IC50 L858R/T790M/C797S (nM), 100 μM ATP
- Protocol: Biochemical EGFR kinase assays were conducted using Lance Ultra time-resolved fluorescence resonance energy transfer (TR-FRET) technology from Perkin-Elmer. […] Each kinase reactions were incubated at room temperature for 1 hour and then stopped by the addition of 4 μL of stop solution (10 mM EDTA). […] After 60 minutes incubation at room temperature the LANCE signal was measured on an EnVision Multilabel Reader (Perkin-Elmer). […]
assay readout: IC50 (nM)

Cn1ccc(C#Cc2cnc(Nc3ccnc(-c4cnn(S(=O)(=O)C5CC5)c4)n3)cc2N2CCC(C)(CO)CC2)n1 : 1.3
CN1CCC2(CC1)CCN(c1cc(Nc3ccnc(-c4cnn(S(=O)(=O)C5CC5)c4)n3)ncc1C#Cc1cnn(CC(F)F)c1)CC2 : 0.4
CC1(CO)CCN(c2cc(Nc3ccnc(-c4cnn(S(=O)(=O)C5CC5)c4)n3)ncc2C#Cc2ccc(CN3CCOCC3)s2)CC1 : 9.8
CC1(CO)CCN(c2cc(Nc3ccnc(-c4cnn(S(=O)(=O)C5CC5)c4)n3)ncc2C#Cc2csc(CN3CCOCC3)n2)CC1 : 0.9

[P] O=S(=O)(C1CC1)n1cc(-c2nccc(Nc3cc(N4CCC(F)(CO)CC4)c(C#Cc4cnn(CC(F)(F)F)c4)cn3)n2)cn1
[Q] Cn1cc(C#Cc2cnc(Nc3ccnc(-c4cnn(S(=O)(=O)C5CC5)c4)n3)cc2N2CCC(NCC(F)(F)F)CC2)cn1
[R] CN1CCC(C#Cc2cnc(Nc3ccnc(-c4cnn(S(=O)(=O)C5CC5)c4)n3)cc2N2CCC3(CCO3)CC2)C1 (stereo not drawn)
[S] CC(C)(CO)CNc1cc(Nc2ccnc(-c3cnn(S(=O)(=O)C4CC4)c3)n2)ncc1C#Cc1cnn(CCF)c1
Hello, I need these entries ordered by IC50, highest reading first. Thanks! The labels, placed in the requested order, form the answer.
S, Q, P, R
(S: 13.1 nM, Q: 5.2 nM, P: 0.8 nM, R: 0.4 nM)
